Below, each entry is listed alongside its reported ELISA (S/N).
molecular target: T1, human Erk2 (extracellular signal-regulated kinase 2), purchased from Sigma (human, UniProt P28482 1-360, limits assumed); test: ELISA, purified clone 500 ng/well on immobilised antigen, anti-FLAG-HRP detection
T1 construct: Biotinylated with EZ-Link NHS-PEO4-Biotin for selection and for SPR (SA sensor chip); immobilised directly on the plate for ELISA; also called recombinant Erk2 protein; Erk2 protein
T1 sequence (P28482 whole entry): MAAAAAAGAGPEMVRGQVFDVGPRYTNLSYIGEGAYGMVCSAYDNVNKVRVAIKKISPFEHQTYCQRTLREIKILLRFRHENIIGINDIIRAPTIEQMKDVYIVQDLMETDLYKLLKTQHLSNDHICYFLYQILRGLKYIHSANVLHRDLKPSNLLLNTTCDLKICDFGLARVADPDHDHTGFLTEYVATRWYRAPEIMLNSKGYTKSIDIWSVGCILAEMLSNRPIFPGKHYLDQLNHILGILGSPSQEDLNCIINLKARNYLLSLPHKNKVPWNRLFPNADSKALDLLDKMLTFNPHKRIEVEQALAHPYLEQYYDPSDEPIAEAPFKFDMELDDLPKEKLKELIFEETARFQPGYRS
experimentalReadout: ELISA (S/N)

1) Erk2-binding clone group D (RNF8-FHA domain-modified protein) (designed binder, Loop 4 SHKWWV; loops 1-3 as group A; also called Erk2 clone D; not shown: N-terminal fusion partner from vector pET-MalStrep (MBP/Strep) and FLAG tag) GEPGFFVTGDRAGGRSWCLRRVGMSAGWLLLEDGCEVTVGFGTGVTYQLVSKYLPSWFTYNHCVLKQNPEGQWTIMDNKSLTGVWLNRARLEPLRVYSIHQGDYIQLGSHKWWVENAEYEYEVTEEDWETIYPCLSPKNDQMIEKN
13.6
2) Erk2-binding clone group N (RNF8-FHA domain-modified protein) (designed binder, Purified protein from E. coli; also called Erk2 clone N; clone N; not shown: N-terminal fusion partner from vector pET-MalStrep (MBP/Strep) and FLAG tag) GEPGFFVTGDRAGGRSWCLRRVGMSAGWLLLEDGCEVTVGWGGGVTYQLVSKGYLWQRRTNHCVLKQNPEGQWTIMDNKVLGGVWLNRARLEPLRVYSIHQGDYIQLGLRSLLLENAEYEYEVTEEDWETIYPCLSPKNDQMIEKN
12.6
3) Erk2-binding clone group B (RNF8-FHA domain-modified protein) (designed binder, Loop 4 ALKQSL; loops 1-3 as group A; also called Erk2 clone B; not shown: N-terminal fusion partner from vector pET-MalStrep (MBP/Strep) and FLAG tag) GEPGFFVTGDRAGGRSWCLRRVGMSAGWLLLEDGCEVTVGFGTGVTYQLVSKYLPSWFTYNHCVLKQNPEGQWTIMDNKSLTGVWLNRARLEPLRVYSIHQGDYIQLGALKQSLENAEYEYEVTEEDWETIYPCLSPKNDQMIEKN
30
4) Erk2-binding clone group C (RNF8-FHA domain-modified protein) (designed binder, Loop 4 AMTTSY; loops 1-3 as group A; also called Erk2 clone C; not shown: N-terminal fusion partner from vector pET-MalStrep (MBP/Strep) and FLAG tag) GEPGFFVTGDRAGGRSWCLRRVGMSAGWLLLEDGCEVTVGFGTGVTYQLVSKYLPSWFTYNHCVLKQNPEGQWTIMDNKSLTGVWLNRARLEPLRVYSIHQGDYIQLGAMTTSYENAEYEYEVTEEDWETIYPCLSPKNDQMIEKN
12
5) Erk2-binding clone group A (RNF8-FHA domain-modified protein) (designed binder, Expressed from pET-MalStrep in E. coli; also called Erk2 clone A; not shown: N-terminal fusion partner from E. coli vector pET-MalStrep (MBP, purified on MBPTrap)) GEPGFFVTGDRAGGRSWCLRRVGMSAGWLLLEDGCEVTVGFGTGVTYQLVSKYLPSWFTYNHCVLKQNPEGQWTIMDNKSLTGVWLNRARLEPLRVYSIHQGDYIQLGGIWSDLENAEYEYEVTEEDWETIYPCLSPKNDQMIEKN
30
